Target: rifampicin metabolism (β-esterases) (Homo sapiens)
Sequence (P22760 1-399): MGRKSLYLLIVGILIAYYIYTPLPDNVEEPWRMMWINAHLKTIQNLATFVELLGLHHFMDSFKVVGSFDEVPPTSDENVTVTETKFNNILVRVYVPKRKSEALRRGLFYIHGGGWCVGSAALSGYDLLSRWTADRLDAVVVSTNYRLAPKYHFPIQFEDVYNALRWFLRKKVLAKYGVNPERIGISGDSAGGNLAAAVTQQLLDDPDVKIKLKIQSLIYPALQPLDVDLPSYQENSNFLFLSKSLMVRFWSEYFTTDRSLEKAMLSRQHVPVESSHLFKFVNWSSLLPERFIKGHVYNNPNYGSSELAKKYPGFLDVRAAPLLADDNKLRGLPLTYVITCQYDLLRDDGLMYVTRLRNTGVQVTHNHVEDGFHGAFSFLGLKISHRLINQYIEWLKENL
Test: Time-dependent inhibition (TDI) IC50 shift assay in HLM, rifampicin metabolism
Format: in vitro ADME
Conditions: human liver microsomes, probe rifampicin, rifampicin pathway, fold shift ≥1.5 classified positive for TDI, read-out: IC50 shift-fold, co-incubation IC50(-) / pre-incubation IC50(+)
Structures can show the parent of a compound that is named as a salt.

{"columns": ["COMPOUND", "IC50 shift"],
 "data": [
  ["Cc1c(O)cccc1C(=O)N[C@@H](CSc1ccccc1)[C@H](O)CN1C[C@H]2CCCC[C@H]2C[C@H]1C(=O)NC(C)(C)C [nelfinavir, nelfinavir mesylate hydrate]", "> 1.5"]
]}

src = paper PMC7204527
